Data origin: ChEMBL document CHEMBL3822454

# test.protocol: Cytotoxicity against BAEC assessed as reduction in cell viability measured after 24 hrs by MTT assay
# Design: species or system Bos taurus
# condition.notes: cattle
measured.attribute: IC10 (µM)
Expressed in µM, but write only the number.

# input What value of measured IC10 is listed for CCOP(=O)(OCC)C(C)(C)/[N+]([O-])=C/c1ccccc1O ?
# output 1400

# input For the molecule CCOP(=O)(OCC)C(C)(C)/[N+]([O-])=C/c1ccc(O)c(O)c1 , what IC10 is on record?
# output 500

# input If you can, please state the reported IC10 value of CCOP(=O)(OCC)C(C)(C)/[N+]([O-])=C/c1c(C)cccc1C .
# output 500

# input If you can, please state the reported IC10 value of CCOP(=O)(OCC)C(C)(C)/[N+]([O-])=C/c1ccc(O)c(OC)c1 .
# output 700

# input Which value of IC10 has been reported for O=C(O)/C=C/c1ccc(O)c(O)c1 in the records?
# output 200

# input Bench note: what IC10 did CCOP(=O)(OCC)C(C)(C)/[N+]([O-])=C/c1cccc(O)c1 show?
# output 800

# input Query (molecule): CCOP(=O)(OCC)C(C)(C)/[N+]([O-])=C/c1ccc(O)cc1 ; field requested: IC10
# output 1600
